# assay.protocol: qHTS assay to identify small molecule agonists of the AP-1 signaling pathway - cell viability counter screen (AID 1159525); note: nearly all actives have a fitted effect of over 55% in size
# condition.context: ME-180 (cervical carcinoma) AP-1-bla cells viability, ATP luminescence, 5 h; series mostly up to 76.8 µM
Results filed as inconclusive are left out. Activity calls are given as the source filed them. Calls come from the whole dose curve.
readout.kind: viability change, negative = cytotoxic

# annotated cases, reported viability change, negative = cytotoxic shown
CCOP(=S)(S)OCC: inactive
CCCN(CCC)c1c([N+](=O)[O-])cc(C(C)C)cc1[N+](=O)[O-]: inactive
CCN(C(C)=O)c1cccc(-c2ccnc3c(C#N)cnn23)c1: inactive
O=C(Cc1ccccc1)OCCc1ccccc1: inactive

For every item in the list below, what is its measured viability change, negative = cytotoxic?
1. COCc1cnc(C2=NC(C)(C(C)C)C(=O)N2)c(C(=O)O)c1 (stereo not drawn)
2. CN1C(=O)CN=C(c2ccccc2)c2cc([N+](=O)[O-])ccc21
3. O=C(O)COc1cc(Cl)c(Cl)cc1Cl
4. Clc1ccc(Cl)c(Cl)c1
5. NNCCO
6. CCCC(C)(COC(N)=O)COC(=O)NC(C)C (stereo not drawn)

Response given:
inactive
inactive
inactive
inactive
inactive
inactive

Where do these numbers come from? They come from PubChem BioAssay (Tox21).
